- Tested on: M. tuberculosis H37Rv (ATCC 27294)
- Protocol: microbe, parasite or virus in culture
- Type: cell-based
- Experimental context: Mycobacterium tuberculosis, 120 h
Known MIC of a selection of compounds

>  <Chemical smiles>
CO[C@H]1/C=C/O[C@@]2(C)Oc3c(C)c(O)c4c(c3C2=O)C2=NC3(CCN(CC(C)C)CC3)NC2=C(NC(=O)/C(C)=C\C=C\[C@H](C)[C@H](O)[C@@H](C)[C@@H](O)[C@@H](C)[C@H](OC(=O)CN2CCC(N3CCCCC3)CC2)[C@@H]1C)C4=O

>  <Unit label>
ng/mL

>  <MIC>
7

$$$$
>  <Chemical smiles>
CO[C@H]1/C=C/O[C@@]2(C)Oc3c(C)c(O)c4c(c3C2=O)C2=NC3(CCN(CC(C)C)CC3)NC2=C(NC(=O)/C(C)=C\C=C\[C@H](C)[C@H](O)[C@@H](C)[C@@H](O)[C@@H](C)[C@H](OC(=O)CNCCCN(C)C)[C@@H]1C)C4=O

>  <Unit label>
ng/mL

>  <MIC>
3

$$$$
>  <Chemical smiles>
CO[C@H]1/C=C/O[C@@]2(C)Oc3c(C)c(O)c4c(c3C2=O)C2=NC3(CCN(CC(C)C)CC3)NC2=C(NC(=O)/C(C)=C\C=C\[C@H](C)[C@H](O)[C@@H](C)[C@@H](O)[C@@H](C)[C@H](OC(=O)CN2CCC(N(C)C)CC2)[C@@H]1C)C4=O

>  <Unit label>
ng/mL

>  <MIC>
8

$$$$
>  <Chemical smiles>
CO[C@H]1/C=C/O[C@@]2(C)Oc3c(C)c(O)c4c(c3C2=O)C2=NC3(CCN(CC(C)C)CC3)NC2=C(NC(=O)/C(C)=C\C=C\[C@H](C)[C@H](O)[C@@H](C)[C@@H](O)[C@@H](C)[C@H](OC(=O)C[n+]2ccc(N(C)C)cc2)[C@@H]1C)C4=O

>  <Unit label>
ng/mL

>  <MIC>
2.5

$$$$
>  <Chemical smiles>
CO[C@H]1/C=C/O[C@@]2(C)Oc3c(C)c(O)c4c(c3C2=O)C2=NC3(CCN(CC(C)C)CC3)NC2=C(NC(=O)/C(C)=C\C=C\[C@H](C)[C@H](O)[C@@H](C)[C@@H](O)[C@@H](C)[C@H](OC(=O)CN2CCC(n3c(=O)[nH]c5ccccc53)CC2)[C@@H]1C)C4=O

>  <Unit label>
ng/mL

>  <MIC>
2

$$$$
>  <Chemical smiles>
CO[C@H]1/C=C/O[C@@]2(C)Oc3c(C)c(O)c4c(c3C2=O)C2=NC3(CCN(CC(C)C)CC3)NC2=C(NC(=O)/C(C)=C\C=C\[C@H](C)[C@H](O)[C@@H](C)[C@@H](O)[C@@H](C)[C@H](OC(=O)CN2CCC3(CC2)C(=O)NCN3c2ccccc2)[C@@H]1C)C4=O

>  <Unit label>
ng/mL

>  <MIC>
3

$$$$
>  <Chemical smiles>
CO[C@H]1/C=C/O[C@@]2(C)Oc3c(C)c(O)c4c(c3C2=O)C2=NC3(CCN(CC(C)C)CC3)NC2=C(NC(=O)/C(C)=C\C=C\[C@H](C)[C@H](O)[C@@H](C)[C@@H](O)[C@@H](C)[C@H](OC(=O)CN2CCc3[nH]c5ccccc5c3C2)[C@@H]1C)C4=O

>  <Unit label>
ng/mL

>  <MIC>
8

$$$$

---

As a worked illustration, we turn to MIC data collected for M. avium (ATCC 25291).
Measurement kind: MIC (µg/mL)

>  <Molecule>
CO[C@H]1/C=C/O[C@@]2(C)Oc3c(C)c(O)c4c(c3C2=O)C2=NC3(CCN(CC(C)C)CC3)NC2=C(NC(=O)/C(C)=C\C=C\[C@H](C)[C@H](O)[C@@H](C)[C@@H](O)[C@@H](C)[C@H](OC(=O)CN2CCC(n3c(=O)[nH]c5ccccc53)CC2)[C@@H]1C)C4=O

>  <Measurement kind>
MIC

>  <Experimental result>
1.3

$$$$
>  <Molecule>
CO[C@H]1/C=C/O[C@@]2(C)Oc3c(C)c(O)c4c(c3C2=O)C2=NC3(CCN(CC(C)C)CC3)NC2=C(NC(=O)/C(C)=C\C=C\[C@H](C)[C@H](O)[C@@H](C)[C@@H](O)[C@@H](C)[C@H](OC(=O)CN2CCC3C(CCCN3Cc3ccccc3)C2)[C@@H]1C)C4=O (stereo partly shown)

>  <Measurement kind>
MIC

>  <Experimental result>
3.9

$$$$
>  <Molecule>
CO[C@H]1/C=C/O[C@@]2(C)Oc3c(C)c(O)c4c(c3C2=O)C2=NC3(CCN(CC(C)C)CC3)NC2=C(NC(=O)/C(C)=C\C=C\[C@H](C)[C@H](O)[C@@H](C)[C@@H](O)[C@@H](C)[C@H](OC(=O)C[n+]2ccc(N(C)C)cc2)[C@@H]1C)C4=O

>  <Measurement kind>
MIC

>  <Experimental result>
0.8

$$$$
>  <Molecule>
CO[C@H]1/C=C/O[C@@]2(C)Oc3c(C)c(O)c4c(c3C2=O)C2=NC3(CCN(CC(C)C)CC3)NC2=C(NC(=O)/C(C)=C\C=C\[C@H](C)[C@H](O)[C@@H](C)[C@@H](O)[C@@H](C)[C@H](OC(=O)CN2CCC(N(C)C)CC2)[C@@H]1C)C4=O

>  <Measurement kind>
MIC

>  <Experimental result>
1.2

$$$$

---

Known MIC of a selection of compounds
- Tested on: M. xenopi (ATCC 19250)

>  <Compound>
CO[C@H]1/C=C/O[C@@]2(C)Oc3c(C)c(O)c4c(c3C2=O)C2=NC3(CCN(CC(C)C)CC3)NC2=C(NC(=O)/C(C)=C\C=C\[C@H](C)[C@H](O)[C@@H](C)[C@@H](O)[C@@H](C)[C@H](OC(=O)CN2CCC(Oc3ccccc3)CC2)[C@@H]1C)C4=O

>  <MIC [µg/mL]>
0.02

$$$$
>  <Compound>
CO[C@H]1/C=C/O[C@@]2(C)Oc3c(C)c(O)c4c(c3C2=O)C2=NC3(CCN(CC(C)C)CC3)NC2=C(NC(=O)/C(C)=C\C=C\[C@H](C)[C@H](O)[C@@H](C)[C@@H](O)[C@@H](C)[C@H](OC(=O)CN2CCC(NS(=O)(=O)c3ccccc3)CC2)[C@@H]1C)C4=O

>  <MIC [µg/mL]>
0.01

$$$$
>  <Compound>
CO[C@H]1/C=C/O[C@@]2(C)Oc3c(C)c(O)c4c(c3C2=O)C2=NC3(CCN(CC(C)C)CC3)NC2=C(NC(=O)/C(C)=C\C=C\[C@H](C)[C@H](O)[C@@H](C)[C@@H](O)[C@@H](C)[C@H](OC(=O)CN2CCN(C)CC2)[C@@H]1C)C4=O

>  <MIC [µg/mL]>
0.04

$$$$
>  <Compound>
CO[C@H]1/C=C/O[C@@]2(C)Oc3c(C)c(O)c4c(c3C2=O)C2=NC3(CCN(CC(C)C)CC3)NC2=C(NC(=O)/C(C)=C\C=C\[C@H](C)[C@H](O)[C@@H](C)[C@@H](O)[C@@H](C)[C@H](OC(=O)C[n+]2ccc(N(C)C)cc2)[C@@H]1C)C4=O

>  <MIC [µg/mL]>
0.04

$$$$
>  <Compound>
CO[C@H]1/C=C/O[C@@]2(C)Oc3c(C)c(O)c4c(c3C2=O)C2=NC3(CCN(CC(C)C)CC3)NC2=C(NC(=O)/C(C)=C\C=C\[C@H](C)[C@H](O)[C@@H](C)[C@@H](O)[C@@H](C)[C@H](OC(=O)CN2CCC3(CC2)C(=O)NCN3c2ccccc2)[C@@H]1C)C4=O

>  <MIC [µg/mL]>
0.03

$$$$
>  <Compound>
CO[C@H]1/C=C/O[C@@]2(C)Oc3c(C)c(O)c4c(c3C2=O)C2=NC3(CCN(CC(C)C)CC3)NC2=C(NC(=O)/C(C)=C\C=C\[C@H](C)[C@H](O)[C@@H](C)[C@@H](O)[C@@H](C)[C@H](OC(=O)CN2CCC3C(CCCN3Cc3ccccc3)C2)[C@@H]1C)C4=O (stereo partly shown)

>  <MIC [µg/mL]>
0.03

$$$$
>  <Compound>
CO[C@H]1/C=C/O[C@@]2(C)Oc3c(C)c(O)c4c(c3C2=O)C2=NC3(CCN(CC(C)C)CC3)NC2=C(NC(=O)/C(C)=C\C=C\[C@H](C)[C@H](O)[C@@H](C)[C@@H](O)[C@@H](C)[C@H](OC(=O)CN2CCc3[nH]c5ccccc5c3C2)[C@@H]1C)C4=O

>  <MIC [µg/mL]>
0.7

$$$$

---

- System: M. xenopi (ATCC 19250)
Known MIC of a selection of compounds
Measurement kind: MIC (µg/mL)

>  <Chemical smiles>
CO[C@H]1/C=C/O[C@@]2(C)Oc3c(C)c(O)c4c(c3C2=O)C2=NC3(CCN(CC(C)C)CC3)NC2=C(NC(=O)/C(C)=C\C=C\[C@H](C)[C@H](O)[C@@H](C)[C@@H](O)[C@@H](C)[C@H](OC(=O)CN2CCN(CC3CCCCC3)CC2)[C@@H]1C)C4=O

>  <Experimental result>
0.05

$$$$
>  <Chemical smiles>
CO[C@H]1/C=C/O[C@@]2(C)Oc3c(C)c(O)c4c(c3C2=O)C2=NC3(CCN(CC(C)C)CC3)NC2=C(NC(=O)/C(C)=C\C=C\[C@H](C)[C@H](O)[C@@H](C)[C@@H](O)[C@@H](C)[C@H](OC(=O)CN2CCC(N3CCCCC3)CC2)[C@@H]1C)C4=O

>  <Experimental result>
0.06

$$$$
>  <Chemical smiles>
CO[C@H]1/C=C/O[C@@]2(C)Oc3c(C)c(O)c4c(c3C2=O)C2=NC3(CCN(CC(C)C)CC3)NC2=C(NC(=O)/C(C)=C\C=C\[C@H](C)[C@H](O)[C@@H](C)[C@@H](O)[C@@H](C)[C@H](OC(=O)CN2CCC(n3c(=O)[nH]c5cc(Cl)ccc53)CC2)[C@@H]1C)C4=O

>  <Experimental result>
0.03

$$$$
>  <Chemical smiles>
CO[C@H]1/C=C/O[C@@]2(C)Oc3c(C)c(O)c4c(c3C2=O)C2=NC3(CCN(CC(C)C)CC3)NC2=C(NC(=O)/C(C)=C\C=C\[C@H](C)[C@H](O)[C@@H](C)[C@@H](O)[C@@H](C)[C@H](OC(=O)CNCCN2CCOCC2)[C@@H]1C)C4=O

>  <Experimental result>
0.01

$$$$
>  <Chemical smiles>
CO[C@H]1/C=C/O[C@@]2(C)Oc3c(C)c(O)c4c(c3C2=O)C2=NC3(CCN(CC(C)C)CC3)NC2=C(NC(=O)/C(C)=C\C=C\[C@H](C)[C@H](O)[C@@H](C)[C@@H](O)[C@@H](C)[C@H](OC(=O)CN2CCC(O)(Cc3ccccc3)CC2)[C@@H]1C)C4=O

>  <Experimental result>
0.01

$$$$
>  <Chemical smiles>
CO[C@H]1/C=C/O[C@@]2(C)Oc3c(C)c(O)c4c(c3C2=O)C2=NC3(CCN(CC(C)C)CC3)NC2=C(NC(=O)/C(C)=C\C=C\[C@H](C)[C@H](O)[C@@H](C)[C@@H](O)[C@@H](C)[C@H](OC(=O)CN2CCC(N(C)C)CC2)[C@@H]1C)C4=O

>  <Experimental result>
0.07

$$$$
>  <Chemical smiles>
CO[C@H]1/C=C/O[C@@]2(C)Oc3c(C)c(O)c4c(c3C2=O)C2=NC3(CCN(CC(C)C)CC3)NC2=C(NC(=O)/C(C)=C\C=C\[C@H](C)[C@H](O)[C@@H](C)[C@@H](O)[C@@H](C)[C@H](OC(=O)CNCCCN(C)C)[C@@H]1C)C4=O

>  <Experimental result>
0.01

$$$$
